Target: full-length NS3 (1-631) protein (HCV NS3 helicase) (Hepatitis C virus genotype 1a, UniProt P27958)
Construct: Recombinant, purified, full-length NS3 (1-631) protein
Sequence (P27958 1027-1657 T1100M/T1173A/K1247Q/A1303G/S1327L/G1556E/R1608W): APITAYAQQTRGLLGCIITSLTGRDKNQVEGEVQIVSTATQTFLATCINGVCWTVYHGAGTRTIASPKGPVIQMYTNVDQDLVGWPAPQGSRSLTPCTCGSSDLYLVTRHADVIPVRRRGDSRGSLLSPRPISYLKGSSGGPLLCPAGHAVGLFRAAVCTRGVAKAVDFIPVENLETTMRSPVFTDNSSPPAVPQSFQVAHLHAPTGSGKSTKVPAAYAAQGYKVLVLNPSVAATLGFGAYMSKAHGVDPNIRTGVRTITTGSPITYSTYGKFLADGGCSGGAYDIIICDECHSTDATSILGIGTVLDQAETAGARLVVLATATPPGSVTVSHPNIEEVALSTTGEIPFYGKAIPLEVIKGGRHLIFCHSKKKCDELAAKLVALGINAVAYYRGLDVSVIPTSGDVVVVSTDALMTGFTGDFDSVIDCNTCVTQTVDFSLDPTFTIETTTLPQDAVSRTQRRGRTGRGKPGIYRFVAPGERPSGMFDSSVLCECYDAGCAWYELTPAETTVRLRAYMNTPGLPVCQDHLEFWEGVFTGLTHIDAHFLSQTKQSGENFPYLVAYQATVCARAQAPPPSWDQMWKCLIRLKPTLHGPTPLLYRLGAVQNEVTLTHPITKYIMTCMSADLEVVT
Assay: HCV Helicase TR-FRET Unwinding Assay
Assay type: biochemical
Conditions: Table 4, inhibition of DNA unwinding, 2.5 nM NS3, 100 μM ATP
pIC50: −log10 of the molar value.
quantityName: pIC50

For orientation, consider the following solved cases.
Cc1cc(/C=C/C(=O)N2CCCCC2)c(Cl)cc1Sc1ccc(F)cc1 [Example 16G] : 4.30 to 5.00
CN(C)c1ccc(/C=C/C(=O)N2CCOCC2)c(Cl)c1 : 4.30 to 5.00
CN(C)c1ccc(/C=C/C(=O)NCCCn2ccnc2)c(Cl)c1 : 4.30 to 5.00
Cc1cc(/C=C/C(=O)Nc2cccc(C(=O)O)c2)c(Cl)cc1Sc1ccc(F)cc1 : > 5.00

Consider the additional compound presented here.
## Task What value of pIC50 has been recorded for this entry: `O=C(/C=C/c1ccc(Sc2ccc(F)cc2)cc1Cl)N1CCN(C(=O)c2ccoc2)CC1`
## Result 4.30 to 5.00
